assayName: In vivo pharmacokinetic analysis in mice
Set-up: species or system male CD-1 mice
setupConditions: male, CD-1, mouse, plasma, po, 50 mg/kg
propertyMeasured: AUC(0-t) (µM·h)
Numbers only, in µM·h.

I would be grateful if you could share the reported AUC(0-t) for `Nc1nc(Cl)cc(-c2nn(C(F)F)cc2Cc2ccccc2OCCN2CCOC[C@H]2CO)n1` .
5460

----------
assayName: In vivo pharmacokinetic analysis in mice
Set-up: species or system male CD-1 mice
setupConditions: male, CD-1, mouse, plasma, iv, 2 mg/kg
propertyMeasured: clearance

I would be grateful if you could share the reported clearance for Nc1nc(Cl)cc(-c2nn(C(F)F)cc2Cc2ccccc2OCCN2CCOC[C@H]2CO)n1 [Compound 33] .
94 mL/min/kg
